- Tested on: ALL cell lines (EU-1 and EU-3)
- PROCEDURE_DETAILS: WST cytotoxicity assay, ALL cell lines
- Format: cell-based
- EXPERIMENTAL_CONTEXT: Homo sapiens, 48 h
ATTRIBUTE_MEASURED: IC50

q: Returns the measured IC50 for the input compound. Input: Cc1ccc(NS(=O)(=O)c2ccc3c(c2)C2OCCC2C(c2ccc(C(=O)C(C)C)cc2)N3)cc1C (stereo not shown) [Compound 14]
a: 300 to 400 nM
